# Test system: Hepatic stellate cell strain LX-2
# Test Details: In vitro effect on expression of LX-2 cell activation marker α-SMA (Western Blot, β-actin reference)
# Type: cell-based
# Protocol Conditions: LX-2 cells, 10.0 uM, 48 hours, negative control = 100%
Starred links: 1 amine or outer side, 2 acyl side, 3 side chain; linkers in the order of their positions; H or OH if unused. Non-standard residues stand in square brackets, D forms with d. Groups on a side chain read outwards from the residue. Primed or numbered codes have the meaning given here. No end group written: not given here. *: point of attachment. γGlu = O=C(O)[C@H](CCC(=O)[*:2])N[*:1]; Palmitoyl = CCCCCCCCCCCCCCCC(=O)*; PEG2′ = not defined here
Property Label: Relative expression of α-SMA (α-SMA/β-actin, %)
One number for each entry, in %.

1. His-(D-Ser)-Gln-Gly-Thr-Phe-Thr-Ser-Asp-Tyr-Ser-Lys-Tyr-Leu-Asp-Lys(PEG2-PEG2-γGlu-CO(CH2)14CH3)-Arg-Arg-Ala- Gln-Asp-Phe-Val-Gln-Trp-Leu-Met-Asn-Thr-Gly-Gly-Pro-Ser-Ser-Gly-Ala-Pro-Pro-Pro-Ser-NH2 (H[dS]QGTFTSDYSKYLDK([PEG2′-PEG2′-γGlu-Palmitoyl])RRAQDFVQWLMNTGGPSSGAPPPS-NH2) [Compound 1]    57.59

Continue with the next substance.
Using the record for His-(D-Ser)-Gln-Gly-Thr-Phe-Thr-Ser-Asp-Tyr-Ser-Lys-Tyr-Leu-Asp-Lys(PEG2-PEG2-CO(CH2)14CH3)-Arg-Arg-Ala-Gln- Asp-Phe-Val-Gln-Trp-Leu-Leu-Asn-Thr-Gly-Gly-Pro-Ser-Ser-Gly-Ala-Pro-Pro-Pro-Ser-NH2 (H[dS]QGTFTSDYSKYLDK([PEG2′-PEG2′-Palmitoyl])RRAQDFVQWLLNTGGPSSGAPPPS-NH2) [Compound 25] , report its Relative expression of α-SMA (α-SMA/β-actin, %). 39.17

---

# Tested on: Hepatic stellate cell strain LX-2
# Test Details: In vitro effect on expression of LX-2 cell activation marker α-SMA (Western Blot, β-actin reference)
# Assay type: cell-based
# Protocol Conditions: LX-2 cells, 10.0 uM, 48 hours, negative control = 100%
Starred links: 1 amine or outer side, 2 acyl side, 3 side chain; linkers in the order of their positions; H or OH if unused. Non-standard residues stand in square brackets, D forms with d. Groups on a side chain read outwards from the residue. Primed or numbered codes have the meaning given here. No end group written: not given here. *: point of attachment. C18 diacid = O=C(O)CCCCCCCCCCCCCCCCC(=O)*; γGlu = O=C(O)[C@H](CCC(=O)[*:2])N[*:1]; Stearoyl = CCCCCCCCCCCCCCCCCC(=O)*; PEG2′ = not defined here; Aib = CC(C)(N)C(=O)O
For each record, write down the corresponding Relative expression of α-SMA (α-SMA/β-actin, %).
Answers are plain numbers, in %.

Illustrative cases are given below, each with its answer.
1) His-(D-Ser)-Gln-Gly-Thr-Phe-Thr-Ser-Asp-Tyr-Ser-Lys-Tyr-Leu-Asp-Glu-Lys-Ala-Ala-Lys(PEG2-PEG2-yGlu- CO(CH2)16CO2H)-Glu-Phe-Ile-Glu-Trp-Leu-Leu-Asn-Gly- Gly-Gly-Pro-Ser-Ser-Gly-Ala-Pro-Pro-Pro-Ser-NH2 (H[dS]QGTFTSDYSKYLDEKAAK([PEG2′-PEG2′-γGlu-C18 diacid])EFIEWLLNGGGPSSGAPPPS-NH2) [Compound 12]    41.99
2) His-(D-Ser)-Gln-Gly-Thr-Phe-Thr-Ser-Asp-Tyr-Ser-Lys-Tyr-Leu-Asp-Glu-Lys-Ala-Ala-Lys(PEG2-PEG2-γGlu- CO(CH2)16CH3)-Glu-Phe-Ile-Glu-Trp-Leu-Leu-Asn-Gly-Gly- Gly-Pro-Ser-Ser-Gly-Ala-Pro-Pro-Pro-Ser-NH2 (H[dS]QGTFTSDYSKYLDEKAAK([PEG2′-PEG2′-γGlu-Stearoyl])EFIEWLLNGGGPSSGAPPPS-NH2) [Compound 14]    47.85

Using the record for His-Aib-Gln-Gly-Thr-Phe-Thr-Ser-Asp-Lys(PEG2-PEG2-yGlu- CO(CH2)16CO2H)-Ser-Lys-Tyr-Leu-Asp-Glu-Arg-Arg-Ala- Gln-Asp-Phe-Val-Gln-Trp-Leu-Leu-Asp-Gly-Gly-Gly-Pro-Ser-Ser-Gly-Ala-Pro-Pro-Pro-Ser-NH2 (H[Aib]QGTFTSDK([PEG2′-PEG2′-γGlu-C18 diacid])SKYLDERRAQDFVQWLLDGGGPSSGAPPPS-NH2) [Compound 5] , report its Relative expression of α-SMA (α-SMA/β-actin, %). 37.04

Sourced from patent US20230364194A1
